// provenance: PubChem BioAssay

Tested on: Chordin-like protein 2 (CHRDL2)
Assay: CHRDL2 small-molecule binders, primary screen, biochemical, small-molecule microarray, 635 nm fluorescence (AID 1126);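 further: printed compound slides probed with Chrdl2 protein at 4 µg/mL for 1 h at 4 C; score merges 667 nm emission intensity with signal to noise over three replicate slides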
Details: small-molecule microarray binding, fluorescence 635 nm; higher = more signal
parameter: composite z-score
// print number alone

molecule | assayedTarget | composite z-score
COc1cccc([C@@H]2[C@@H](C)CC[C@H]3C(=O)N4[C@H](c5cccc(OC)c5)[C@@H](C)CC[C@H]4C(=O)N23)c1 | Chordin-like protein 2 (CHRDL2) | 0.811
C=CCN1C(=O)[C@]2(O[C@H](CCn3cc(CCO)nn3)[C@@H]([Si](C)(C)c3ccc(OC)cc3)[C@@H]2C)c2cc(NC(=O)c3ccc(OC)cc3)ccc21 | Chordin-like protein 2 (CHRDL2) | 0.782
COCCCNC(=O)[C@@]1(Sc2ccc(C)cc2)CC(=O)N(Cc2cc(C(F)(F)F)cc(C(F)(F)F)c2)[C@@H]1c1ccc(CO)cc1I | Chordin-like protein 2 (CHRDL2) | -1.19
CCCC/C=C/[C@H]([C@@H](O)Cc1ccccc1)N(CC#Cc1ccccc1)Cc1ccccc1Br | Chordin-like protein 2 (CHRDL2) | -1.64

# input Entry under review: `Cc1ccc(S[C@]2(C(=O)O)CC(=O)N(Cc3ccccc3)[C@@H]2c2ccc(CO)cc2)cc1` . Reported composite z-score?
# output -0.852

# input Try `Cc1ccc(S[C@]2(C(=O)NC3CC3)CC(=O)N(Cc3cc(C(F)(F)F)cc(C(F)(F)F)c3)[C@@H]2c2ccc(CO)cc2)cc1` next.
# output 0.115

# input Try `CO[C@H]1COC(=O)[C@H](C)NC(=O)CC=C[C@@H](C)[C@H](NS(=O)(=O)c2ccc(C)cc2)COC(=O)[C@@H](OCc2ccccc2)C=C[C@@H]1C` next.
# output 1.03

# input Try N#Cc1ccc(NN2C(C(O)CCc3ccccc3)C=CC3C(=O)N(c4ccccc4)C(=O)C32)cc1 (stereo not given) next.
# output -0.794

# input Try `CCOC(=O)C[C@H]1[C@H](OC(=O)c2ccccc2-c2ccccc2)[C@@H](NC(=O)C2CCCCC2)c2cc(OCCCO)ccc2N1C(=O)c1ccccc1` next.
# output 0.173

----------
Test: small-molecule microarray binders of probe aNog, primary screen, biochemical, biotinylated probe, 635/667 nm fluorescence (AID 1115);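 further: probe is biotinylated aNog protein used at 0.15 µg/mL for 1 h at 4 C; z-score combines 667 nm fluorescence of each spot with its signal to noise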
Conditions: higher = more signal
Label rule, in plain words: composite z-score of 0.3 and up is label 1, under 0.3 is label 0.

Observe how each entry below is paired with its result.
compound | classLabel
CCOC(=O)C[C@H]1[C@H](OC(=O)Cc2ccc3c(c2)OCO3)[C@@H](NC(=O)c2ccc3ccccc3c2)c2cc(OCCCO)ccc2N1C(=O)Cc1ccc(OC)cc1 | label 0
CN(C)c1ccc(C(O)C2C=CC3C(=O)NC(=O)C3N2Nc2ccc(Cl)cc2Cl)cc1 (stereo not given) | label 1
O=C1c2ccccc2[C@@]2(Cc3ccccc3N(CC(F)(F)F)C2=O)[C@H](c2ccc(CO)cc2)N1C1CCCCC1 | label 0

# input Is reported composite z-score greater than or equal to 0.3 here: `CCN1C(C)=C(C(=O)OC)[C@@H](c2ccccc2)N2C(=O)[C@](O)(C(=O)OC)[C@@H](c3ccccc3)C(C(C)=O)=C12`
# output label 0

# input Try `COc1ccc([Si](C)(C)[C@H]2[C@H](CC(=O)N(CCO)Cc3ccccc3)O[C@@]3(C(=O)N(C)c4ccccc43)[C@@H]2C)cc1` next.
# output label 0

# input Try C=CC[C@@]1(C(=O)NCC(O)CO)N=C(c2ccc(OCCCO)cc2)O[C@@H]1c1ccccc1CN=[N+]=[N-] (stereo not given in full) next.
# output label 1

# input Try `CO[C@@H]1COC(=O)[C@H](COCc2ccccc2)NC(=O)CC=C[C@@H](C)[C@H](OC)COC(=O)[C@H](COCc2ccccc2)NC(=O)CC=C[C@H]1C` next.
# output label 0

# input Try `O=C(CS)NCCCCCNC(=O)[C@H]1C[C@H]2C(=O)N3CCC[C@H]3C(=O)N2[C@H]1c1ccc(O)cc1` next.
# output label 0

# input Try `C=C(C(=O)CC[C@H](OC(=O)c1ccccc1-c1ccccc1C(=O)O)c1ccc(CO)o1)C(C)C` next.
# output label 0

# input Try `CN(C)CCCC[C@@H]1NC(=O)[C@@H]2C[C@H](C(=O)NCCCCCNC(=O)CS)[C@H](c3ccc(O)cc3)N2C1=O` next.
# output label 1

# input Try `COCC(=C=CC[C@H](O)c1ccc(OCCO)cc1)C[C@H](O)c1ccccn1` next.
# output label 0

# input Try C=CCN(C(=O)C1N(c2ccc(CCO)cc2)C(=O)C2C(C(=O)O)C3C=CC21O3)C(C)(C)C (stereo not given) next.
# output label 0

# input Try `COC(=O)C[C@H]1O[C@]2(C(=O)N(C)c3ccccc32)[C@@H](C)[C@@H]1[Si](C)(C)c1ccc(OC)cc1` next.
# output label 0

# input Try `CN(C)C(=O)[C@@]1(Cc2ccccc2N=[N+]=[N-])N=C(c2ccc(OCCCO)cc2)O[C@H]1c1ccccc1CN=[N+]=[N-]` next.
# output label 1

# input Try `COc1cccc([C@H]2N[C@H](C(=O)O)CC[C@@H]2C)c1` next.
# output label 0

----------
Tested on: Sonic hedgehog protein (Shh)
Assay: small-molecule binders of Shh protein, primary screen, biochemical, small-molecule microarray, 635/667 nm fluorescence (AID 1151);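 further: Shh protein binding to compounds spotted on small-molecule microarray slides; score combines spot fluorescence intensity with signal-to-noise across triplicate slides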
Settings: small-molecule microarray binding, 635 nm fluorescence; higher = more signal
Label rule, in plain words: composite z-score of 0.9 and up is met, under 0.9 is not met.

Observe how each entry below is paired with its result.
compound | classLabel
CO[C@]12C=C(Br)[C@@H](C[C@@H]1c1ccccc1)[C@@]1(CO1)C2=O | not met
O=C1OCC=C[C@H]2OC34C=CCN(Cc5ccccc5)C(=O)[C@H]3N(CCCCCO)C(=O)[C@@H]4[C@@H]12 (some centres undefined) | not met
COCCOC(=O)N1C(=O)[C@@]2(c3cc(C#CC4(O)CCCCCC4)ccc31)[C@H](C(=O)N1CCCCCCC1)[C@H]1C(=O)O[C@H](c3ccccc3)[C@H](c3ccccc3)N1[C@@H]2c1ccc(O)cc1 | met

# input Is reported composite z-score greater than or equal to 0.9 here: `CC(C)(C)OC(=O)CC[C@]1(C(=O)N2CCCCC2)N=C(c2ccc(OCCCO)cc2)O[C@H]1c1ccccc1`
# output met

# input Try `CO[C@@H]1COC(=O)[C@H](C)NC(=O)CC=C[C@@H](C)[C@H](OC)COC(=O)[C@H](C)NC(=O)CC=C[C@H]1C` next.
# output not met

# input Try `CO[C@H]1COC(=O)[C@H](C)NC(=O)CC=C[C@@H](C)[C@H](NS(=O)(=O)c2ccc(C)cc2)COC(=O)CC=C[C@@H]1C` next.
# output met

# input Try C=CCC(OC(C)=O)[C@@H]1[C@@H](N(Cc2cccc3ccccc23)C(=O)c2ccc(C)cc2)c2cc(OCCCO)ccc2N1C(=O)c1ccc(-c2ccccc2)cc1 (some centres undefined) next.
# output not met

# input Try CC1CC/C=C\[C@H]2OC34C=CCN(Cn5nnc6ccccc65)C(=O)[C@H]3N(C(C)CO)C(=O)[C@@H]4C2C(=O)O1 (some centres undefined) next.
# output not met

# input Try `O=C1O[C@H](c2ccccc2)[C@H](c2ccccc2)N2[C@H]1[C@@H](C(=O)Nc1nc3ccccc3s1)[C@]1(C(=O)Nc3ccc(C#CC4(O)CCCCCC4)cc31)[C@H]2c1ccc(O)cc1` next.
# output met

# input Try `CCCC/C=C/[C@H]([C@@H](O)Cc1ccccc1)N(CC#Cc1ccccc1)Cc1ccccc1Br` next.
# output not met

# input Try `CCOC(=O)C[C@H]1[C@H](OC(=O)Cc2ccc3c(c2)OCO3)[C@@H](NC(=O)CC(C)C)c2cc(OCCCO)ccc2N1C(=O)c1ccccc1` next.
# output not met

# input Try `CC(=O)NCCCC[C@@H]1NC(=O)[C@H]2C[C@@H](C(=O)NCCCCCCN(C)C)[C@@H](c3cccc(OCCO)c3)N2C1=O` next.
# output met

----------
Target: Luciferin 4-monooxygenase (Photinus pyralis) (UniProt P08659)
Sequence (P08659 whole entry, looked up): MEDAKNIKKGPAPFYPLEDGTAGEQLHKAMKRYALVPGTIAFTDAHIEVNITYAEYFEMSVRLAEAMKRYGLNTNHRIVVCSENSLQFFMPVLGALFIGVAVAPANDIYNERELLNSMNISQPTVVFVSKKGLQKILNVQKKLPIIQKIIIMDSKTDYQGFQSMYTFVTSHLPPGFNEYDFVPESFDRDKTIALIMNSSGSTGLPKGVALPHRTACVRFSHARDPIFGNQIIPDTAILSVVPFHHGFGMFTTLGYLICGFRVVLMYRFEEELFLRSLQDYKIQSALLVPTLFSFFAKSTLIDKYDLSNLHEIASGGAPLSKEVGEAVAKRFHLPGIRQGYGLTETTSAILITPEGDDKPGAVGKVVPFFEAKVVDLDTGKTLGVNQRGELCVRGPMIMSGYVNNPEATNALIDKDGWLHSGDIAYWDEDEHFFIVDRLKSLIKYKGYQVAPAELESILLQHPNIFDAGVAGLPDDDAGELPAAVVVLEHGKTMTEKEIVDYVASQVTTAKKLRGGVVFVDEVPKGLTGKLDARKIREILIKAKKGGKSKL
Assay: firefly luciferase enzyme inhibitors, primary screen, biochemical, luminescence, purified enzyme, 2006 set (AID 1141);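 further: cell-free assay with purified firefly luciferase at 100 ng per well in PBS; test concentration not given here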
Conditions: SteadyGlo luminescence, 30 min, called active from +8 up or from −8 down
Calls of active or inactive are those of the source.
Please state which outcome applies, choosing from active, inactive

Observe how each entry below is paired with its result.
molecule | classLabel
O=C(CS)NCCCCCCNC(=O)[C@@H]1C[C@@H]2C(=O)N[C@@H](Cc3ccccc3)C(=O)N2[C@@H]1c1ccc(O)cc1 | inactive
CCCC=C(CCC)[C@@H](NC(=O)c1ccc(C(F)(F)F)cc1)c1ccccc1 | inactive
CO[C@@H]1COC(=O)CC=C[C@H](C)COC(=O)[C@H](Cc2ccccc2)NC(=O)CC=C[C@H]1C | inactive
CO[C@H]1COC(=O)[C@H](C)COC(=O)[C@H](Cc2ccccc2)NC(=O)CC=C[C@H]1C | inactive

# input Returns: the outcome recorded for `COc1ccc(C(=O)Nc2ccc(CN3C(=O)[C@]4(O[C@H](CCn5cc(CCO)nn5)[C@@H]([Si](C)(C)c5ccc(OC)cc5)[C@@H]4C)c4ccccc43)cc2)cc1` in this assay.
# output inactive
